Data origin: the supplement of paper PMC9112550

Test system: Escherichia coli TOP10;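 also: peptides expressed intracellularly from a pBAD plasmid library in pooled LB shake-flask culture, induced with 0.3% L-arabinose, DNA abundance read by NGS, three biological replicates, DESeq2 with apeglm shrinkage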
protocolDetails: shrunken log2 fold change of peptide-encoding DNA abundance (4.5 h post-induction vs induction); higher = less antimicrobial activity (less host growth inhibition)
testParameters: time post-induction: 4.5 h; library: site-saturation at positions 5, 18, 19, 20
Entries and their measured shrunken log2 fold change follow.
quantityMeasured: shrunken log2 fold change

| sequenceEntry | valueReported |
| --- | --- |
| RRIRIRPPRLPRPRPRPGDIPRP | -0.0899 |
| RRIRSRPPRLPRPRPRPVELPRP | 0.105 |
| RRIRERPPRLPRPRPRPKRRPRP | 0.143 |
| RRIRKRPPRLPRPRPRPHACPRP | 0.0691 |
| RRIRWRPPRLPRPRPRPFFNPRP | -0.267 |
| RRIRSRPPRLPRPRPRPQIKPRP | 0.0447 |
| RRIRYRPPRLPRPRPRPTNNPRP | -1.14 |
| RRIRTRPPRLPRPRPRPNQVPRP | 0.00376 |
| RRIRQRPPRLPRPRPRPYKGPRP | -0.0872 |
| RRIRWRPPRLPRPRPRPFFQPRP | 0.329 |
| RRIRARPPRLPRPRPRPTQKPRP | -0.0406 |
| RRIRDRPPRLPRPRPRPWRCPRP | 0.26 |
| RRIRSRPPRLPRPRPRPRDPPRP | 0.623 |
| RRIRTRPPRLPRPRPRPWHKPRP | -0.168 |
| RRIRPRPPRLPRPRPRPVTQPRP | 0.2 |
| RRIRNRPPRLPRPRPRPNYSPRP | -0.364 |
| RRIRKRPPRLPRPRPRPDTCPRP | 0.0482 |
| RRIRMRPPRLPRPRPRPHEWPRP | 0.624 |
| RRIRPRPPRLPRPRPRPFLYPRP | -0.138 |
| RRIRARPPRLPRPRPRPCWIPRP | -0.197 |
| RRIRFRPPRLPRPRPRPPIAPRP | 0.31 |
| RRIRPRPPRLPRPRPRPRVCPRP | 0.298 |
| RRIRLRPPRLPRPRPRPAGDPRP | 0.297 |
| RRIRIRPPRLPRPRPRPAYKPRP | -1.89 |
| RRIRFRPPRLPRPRPRPDQVPRP | 0.0246 |
| RRIRFRPPRLPRPRPRPIINPRP | -0.869 |
| RRIRSRPPRLPRPRPRPAHDPRP | 0.162 |
| RRIRWRPPRLPRPRPRPINPPRP | -0.247 |
| RRIRFRPPRLPRPRPRPCDCPRP | -0.0184 |
| RRIRKRPPRLPRPRPRPYFSPRP | -0.178 |
| RRIRHRPPRLPRPRPRPNESPRP | -0.506 |
| RRIRQRPPRLPRPRPRPRVFPRP | -0.0984 |
| RRIRMRPPRLPRPRPRPNQKPRP | 0.00203 |
| RRIRMRPPRLPRPRPRPAGHPRP | 1.24 |
| RRIRGRPPRLPRPRPRPNWAPRP | 0.363 |
| RRIRCRPPRLPRPRPRPIWDPRP | 0.166 |
| RRIRTRPPRLPRPRPRPAPWPRP | 0.254 |
| RRIRHRPPRLPRPRPRPDDSPRP | -0.01 |
| RRIRWRPPRLPRPRPRPSDKPRP | -0.246 |
| RRIRGRPPRLPRPRPRPKDQPRP | 0.843 |
| RRIRPRPPRLPRPRPRPQYQPRP | -0.263 |
| RRIRPRPPRLPRPRPRPLDYPRP | -0.495 |
| RRIRCRPPRLPRPRPRPNAQPRP | 0.164 |
| RRIRFRPPRLPRPRPRPKMQPRP | -0.0373 |
| RRIRGRPPRLPRPRPRPDLTPRP | 0.219 |
| RRIRGRPPRLPRPRPRPWAMPRP | 0.483 |
| RRIRFRPPRLPRPRPRPKWWPRP | -0.0582 |
| RRIRARPPRLPRPRPRPRHHPRP | 0.0585 |
| RRIRRRPPRLPRPRPRPMHTPRP | 0.322 |
| RRIRDRPPRLPRPRPRPQNAPRP | -0.111 |
| RRIRRRPPRLPRPRPRPFNMPRP | -0.362 |
| RRIRGRPPRLPRPRPRPMMGPRP | 0.409 |
| RRIRARPPRLPRPRPRPAMNPRP | 0.121 |
| RRIRERPPRLPRPRPRPAMHPRP | 0.0193 |
